target: GCN2 (Homo sapiens, UniProt Q9P2K8); assay: GCN2 enzyme assay (TR-FRET Lanthascreen, GFP-eIF2alpha phosphorylation); format: biochemical; conditions: 10 μM ATP, 80 nM GFP-eIF2a, 30 nM GCN2
Sequence (Q9P2K8 whole entry, species assumed): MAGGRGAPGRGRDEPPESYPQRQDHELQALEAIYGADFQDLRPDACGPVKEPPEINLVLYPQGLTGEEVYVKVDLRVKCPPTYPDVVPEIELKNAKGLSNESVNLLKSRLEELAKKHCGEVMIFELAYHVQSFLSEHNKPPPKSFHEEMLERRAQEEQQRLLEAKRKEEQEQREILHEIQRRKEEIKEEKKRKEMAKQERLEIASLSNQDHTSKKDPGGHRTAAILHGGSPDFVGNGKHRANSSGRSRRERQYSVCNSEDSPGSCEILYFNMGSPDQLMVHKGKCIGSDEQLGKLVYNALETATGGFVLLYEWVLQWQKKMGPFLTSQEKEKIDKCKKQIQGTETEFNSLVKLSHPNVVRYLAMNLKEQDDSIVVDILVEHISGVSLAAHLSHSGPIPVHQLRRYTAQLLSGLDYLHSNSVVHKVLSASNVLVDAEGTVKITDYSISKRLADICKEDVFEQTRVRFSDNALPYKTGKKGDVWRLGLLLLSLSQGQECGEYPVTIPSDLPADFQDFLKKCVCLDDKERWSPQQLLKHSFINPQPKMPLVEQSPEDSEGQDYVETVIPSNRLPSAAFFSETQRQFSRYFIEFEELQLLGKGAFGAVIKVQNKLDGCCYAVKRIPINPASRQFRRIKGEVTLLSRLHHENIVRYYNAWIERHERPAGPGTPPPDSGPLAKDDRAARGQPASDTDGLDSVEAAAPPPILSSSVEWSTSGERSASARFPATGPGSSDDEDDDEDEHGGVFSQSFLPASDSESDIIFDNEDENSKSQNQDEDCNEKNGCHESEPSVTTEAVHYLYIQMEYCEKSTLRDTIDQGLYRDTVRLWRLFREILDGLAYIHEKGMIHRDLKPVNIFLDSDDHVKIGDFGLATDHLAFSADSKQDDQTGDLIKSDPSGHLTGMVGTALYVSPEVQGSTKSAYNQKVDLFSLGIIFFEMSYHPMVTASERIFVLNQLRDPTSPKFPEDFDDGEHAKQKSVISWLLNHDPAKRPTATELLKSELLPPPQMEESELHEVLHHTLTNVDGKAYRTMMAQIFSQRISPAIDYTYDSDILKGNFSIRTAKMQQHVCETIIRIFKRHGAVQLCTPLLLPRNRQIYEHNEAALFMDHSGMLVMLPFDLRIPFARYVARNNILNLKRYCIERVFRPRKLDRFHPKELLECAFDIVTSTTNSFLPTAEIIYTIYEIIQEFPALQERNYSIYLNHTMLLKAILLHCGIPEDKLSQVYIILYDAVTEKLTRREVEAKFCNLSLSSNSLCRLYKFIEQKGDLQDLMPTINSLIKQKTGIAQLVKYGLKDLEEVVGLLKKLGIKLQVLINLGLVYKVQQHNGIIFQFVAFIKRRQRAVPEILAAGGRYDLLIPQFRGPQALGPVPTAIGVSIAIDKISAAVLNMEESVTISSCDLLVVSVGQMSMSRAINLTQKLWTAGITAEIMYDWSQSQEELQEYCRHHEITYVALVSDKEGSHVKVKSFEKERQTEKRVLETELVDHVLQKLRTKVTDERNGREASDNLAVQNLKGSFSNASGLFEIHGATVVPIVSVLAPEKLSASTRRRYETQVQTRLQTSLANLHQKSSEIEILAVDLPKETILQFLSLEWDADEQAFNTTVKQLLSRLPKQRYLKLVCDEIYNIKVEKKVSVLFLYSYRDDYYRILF
Where a name gives a salt, the structure may show the parent alone.
Provide the recorded IC50 for the entries that follow.

Using known records, supply IC50 for "NC(=O)[C@H]1CC[C@@H](Nc2ncc3nnn(-c4ccc(N5CCCC5)cc4)c3n2)C1"
< 1 µM

Using known records, supply IC50 for "Cn1cc(CNc2ncc3nnn(-c4ccc(Cl)c(F)c4)c3n2)cn1"
1 to 5 µM

Using known records, supply IC50 for "COc1ccc(-n2nnc3cnc(NC4CN(C(=O)CCN(C)C)C4)nc32)cc1"
< 1 µM

Using known records, supply IC50 for "COCCNC(=O)[C@@H]1CC[C@@H](Nc2ncc3nnn(-c4ccc5nc(C)ccc5c4)c3n2)C1"
< 1 µM

Using known records, supply IC50 for COc1ccc(-n2nnc3cnc(N[C@@H]4CCN(C(=O)CCN(C)C)C4)nc32)cc1 [A85, formate]
< 1 µM

Using known records, supply IC50 for Cc1nc2ccc(-n3nnc4cnc(N[C@@H]5CC[C@@H](O)C5)nc43)cc2o1 (relative stereo)
< 1 µM

Using known records, supply IC50 for COCCn1cc(-n2nnc3cnc(N[C@@H]4CCC[C@@H](C(N)=O)C4)nc32)cn1 (relative stereo)
1 to 5 µM

Using known records, supply IC50 for "COC(=O)CCOc1ccc(-n2nnc3cnc(N[C@@H]4CC[C@@H](C(N)=O)C4)nc32)cc1"
< 1 µM

* * *

Target: UniProtKB Q9P2K8
Experiment: Cellular assay of GCN2 activity (phospho-eIF2alpha immunocytochemistry after tryptophanol)
Format: cell-based
Parameters: endogenous in cells; host or cells: U2OS
Conditions: Human U2OS cells, 2 h compound, 600 μM tryptophanol 30 min
Procedure: Cellular Assay for the Determination of Compound Activities Human U2OS cells (2000 cells/well) are seeded into 384-well plates and incubated for 20 hours. The next day, the cells are treated with the test compounds and incubated for 2 hours. […] The analysis and quantification of phosphorylated GCN2 is done by scanning the plates in the Acumen Explorer system (TTPLabtech). The obtained data are normalised against the untreated control wells (DMSO only) and expressed as % effect values. […]
Sequence (Q9P2K8 whole entry): as the sequence (Q9P2K8 whole entry, species assumed) above
pIC50: −log10 of the molar value.
Provide the recorded pIC50 for the entries that follow.

Look up and report pIC50, with UniProtKB Q9P2K8 as system, for "NC(=O)[C@@H]1CC[C@@H](Nc2ncc3nnn(-c4ccc5ncccc5c4)c3n2)C1"
5.00 to 5.30

Look up and report pIC50, with UniProtKB Q9P2K8 as system, for "COc1ccc(-n2nnc3cnc(N[C@@H]4C=C[C@@H](C(N)=O)C4)nc32)cc1"
5.00 to 5.30

Look up and report pIC50, with UniProtKB Q9P2K8 as system, for "NC(=O)[C@@H]1CC[C@@H](Nc2ncc3nnn(-c4ccc(-c5cnn(CCO)c5)cc4)c3n2)C1"
5.30 to 6.00

Look up and report pIC50, with UniProtKB Q9P2K8 as system, for "CCOCCn1cc(-c2ccc(-n3nnc4cnc(N[C@@H]5CC[C@@H](N)C5)nc43)cc2)cn1"
> 6.00

Look up and report pIC50, with UniProtKB Q9P2K8 as system, for "COCCn1cc(-c2ccc(-n3nnc4cnc(N[C@H]5CC[C@H](N)CC5)nc43)cc2)cn1"
5.30 to 6.00

Look up and report pIC50, with UniProtKB Q9P2K8 as system, for "COc1ccc(-n2nnc3cnc(NC4CCN(C(=O)CCN(C)C)CC4)nc32)cc1"
5.00 to 5.30

Look up and report pIC50, with UniProtKB Q9P2K8 as system, for "CCOCCn1cc(-c2ccc(-n3nnc4cnc(N[C@@H]5CC[C@@H](C(N)=O)C5)nc43)cc2F)cn1"
> 6.00

Look up and report pIC50, with UniProtKB Q9P2K8 as system, for "COc1ccc(-n2nnc3cnc(N[C@@H]4CC[C@@H](C(=O)N5CCN(C)CC5)C4)nc32)cc1"
5.30 to 6.00

* * *

biological target: GCN2 (Homo sapiens, UniProt Q9P2K8); assay: Cellular assay of GCN2 activity (phospho-eIF2alpha immunocytochemistry after tryptophanol); type: cell-based; design: endogenous in cells; host or cells: U2OS; settings: Human U2OS cells, 2 h compound, 600 μM tryptophanol 30 min
measurement_type: IC50

Using known records, supply IC50 for "N[C@H]1CC[C@H](Nc2ncc3nnn(-c4ccc(N5CCOCC5)cc4)c3n2)CC1"
1 to 5 µM

Using known records, supply IC50 for "COC(=O)CCOc1ccc(-n2nnc3cnc(N[C@@H]4CC[C@@H](C(N)=O)C4)nc32)cc1"
1 to 5 µM

Using known records, supply IC50 for CC(C)Oc1ccc(-n2nnc3cnc(N[C@@H]4CC[C@@H](O)C4)nc32)cc1 (relative stereo)
5 to 10 µM

Using known records, supply IC50 for "Cc1ccc2cc(-n3nnc4cnc(N[C@@H]5CC[C@H](C(N)=O)C5)nc43)ccc2n1"
1 to 5 µM

Using known records, supply IC50 for Cc1ccc2cc(-n3nnc4cnc(N[C@@H]5CCC[C@@H](C(N)=O)C5)nc43)ccc2n1 (relative stereo)
5 to 10 µM

Using known records, supply IC50 for "N[C@H]1CC[C@H](Nc2ncc3nnn(-c4ccc(-c5cnn(CCO)c5)cc4)c3n2)CC1"
5 to 10 µM

Using known records, supply IC50 for "Cn1cc2cc(-n3nnc4cnc(N[C@@H]5CC[C@@H](C(N)=O)C5)nc43)ccc2n1"
1 to 5 µM

Using known records, supply IC50 for "NC(=O)[C@H]1CC[C@@H](Nc2ncc3nnn(-c4ccc(-c5cnn(CCO)c5)cc4)c3n2)C1"
1 to 5 µM

* * *

Below are IC50 values recorded for GSK3β(h) (Homo sapiens).

Using known records, supply IC50 for CC(C)(O)Cn1cc(-c2ccc(-n3nnc4cnc(N[C@@H]5CC[C@@H](C(N)=O)C5)nc43)cc2)cn1 [A233]
< 1000 nM

Using known records, supply IC50 for CCOCCn1cc(-c2ccc(-n3nnc4cnc(N[C@@H]5CC[C@@H](C(N)=O)C5)nc43)cn2)cn1 [A229]
< 1000 nM

Using known records, supply IC50 for CS(=O)(=O)N1CC[C@@H](Nc2ncc3nnn(-c4ccc5ncccc5c4)c3n2)C1 [A269]
< 1000 nM

* * *

Target: GCN2 (Homo sapiens)
Test: GCN2 enzyme assay (TR-FRET Lanthascreen, GFP-eIF2alpha phosphorylation)
Assay type: biochemical
Conditions: 10 μM ATP, 80 nM GFP-eIF2a, 30 nM GCN2
Description: GCN2: Assay Principle & Conditions This assay can quantificate the activity of the serin kinase GCN2 (general control non-derepressible-2). This kinase is involved in the stress metabolism of cells. […] The enzymatic reaction is stopped by addition of EDTA. The amount of phosphorylated eIF2alpha is determined by TR-FRET (Lanthascreen): A complex is formed consisting of antibody and GFP labelled phospho-eIF2a, which allows a FRET upon exitation at 340 nm. […]
pIC50: −log10 of the molar value. Where a name gives a salt, the structure may show the parent alone.
Provide the recorded pIC50 for the entries that follow.

Using known records, supply pIC50 for Cc1nc2ccc(-n3nnc4cnc(N[C@@H]5CC[C@@H](C(N)=O)C5)nc43)cc2s1 [A147]
> 6.00

Using known records, supply pIC50 for COc1ccc(-n2nnc3cnc(NC4CCS(=O)(=O)C4)nc32)cc1 (centres unmarked) [A8]
> 6.00

Using known records, supply pIC50 for CCOc1ccc(-n2nnc3cnc(N[C@@H]4CC[C@H](C(N)=O)C4)nc32)cc1 [A149]
> 6.00

Using known records, supply pIC50 for CCOc1ccc(-n2nnc3cnc(N[C@@H]4CC[C@@H](C(N)=O)C4)nc32)cc1 [A150]
> 6.00

Using known records, supply pIC50 for COC(=O)[C@@H]1CC[C@@H](Nc2ncc3nnn(-c4ccc(OC)cc4)c3n2)C1 [A113]
> 6.00

Using known records, supply pIC50 for COc1ccc(-n2nnc3cnc(N[C@@H]4CCNC4)nc32)cc1 [A69, hydrochloride]
5.30 to 6.00

Using known records, supply pIC50 for COc1ccc(-n2nnc3cnc(NCCN4CCN(C)CC4)nc32)cc1 [A50]
5.30 to 6.00

Using known records, supply pIC50 for Cn1cc2cc(-n3nnc4cnc(N[C@@H]5CC[C@@H](C(N)=O)C5)nc43)ccc2n1 [A186]
> 6.00

Using known records, supply pIC50 for NC(=O)[C@@H]1CC[C@@H](Nc2ncc3nnn(-c4ccc(I)cc4)c3n2)C1 [A170]
> 6.00

Using known records, supply pIC50 for Cc1ccc2cc(-n3nnc4cnc(N[C@@H]5CCN(C(=O)CCN6CCN(C)CC6)C5)nc43)ccc2n1 [A134]
> 6.00

Using known records, supply pIC50 for COc1ccc(-n2nnc3cnc(N[C@@H]4CC[C@@H](C(N)=O)C4)nc32)cc1F [A152]
> 6.00

Using known records, supply pIC50 for COc1ccc(-n2nnc3cnc(N[C@@H]4CCN(C(=O)Cn5cccn5)C4)nc32)cc1 [A90]
> 6.00

Using known records, supply pIC50 for COc1ccc(-n2nnc3cnc(NCCCN4CCCC4)nc32)cc1 [A61]
5.00 to 5.30

Using known records, supply pIC50 for Cn1cc(-c2ccc(-n3nnc4cnc(N[C@H]5CC[C@H](O)C5)nc43)cc2)cn1 (relative stereo) [A51]
> 6.00

Using known records, supply pIC50 for CCOc1ccc(-n2nnc3cnc(N[C@@H]4CC[C@@H](C(=O)NNC(C)=O)C4)nc32)cc1 [A280]
> 6.00

Using known records, supply pIC50 for COc1ccc(-n2nnc3cnc(N[C@@H]4CCC[C@@H](O)C4)nc32)cc1 [A201]
> 6.00

Using known records, supply pIC50 for Cc1ccc2cc(-n3nnc4cnc(N[C@H]5CC[C@H](C(N)=O)C5)nc43)ccc2n1 [A193]
> 6.00

Using known records, supply pIC50 for NC(=O)[C@@H]1CC[C@@H](Nc2ncc3nnn(-c4ccc(OC5CCOCC5)cc4)c3n2)C1 [A168]
> 6.00

Using known records, supply pIC50 for COc1ccc(-n2nnc3cnc(NC4CCN(C)CC4)nc32)cc1 [A18]
5.30 to 6.00

Using known records, supply pIC50 for NC(=O)[C@H]1CC[C@@H](Nc2ncc3nnn(-c4ccc5nsnc5c4)c3n2)C1 [A172]
> 6.00

Using known records, supply pIC50 for COc1ccc(-n2nnc3cnc(N[C@H]4CC[C@H](S(N)(=O)=O)C4)nc32)cc1 (relative stereo) [A288]
> 6.00

Using known records, supply pIC50 for Cn1cc(-c2ccc(-n3nnc4cnc(N[C@H]5CC[C@H](O)C5)nc43)nc2)cn1 (relative stereo) [A94]
> 6.00

Using known records, supply pIC50 for COc1ccc(-n2nnc3cnc(NC(C)(C)C)nc32)cc1 [A7]
> 6.00

Using known records, supply pIC50 for COc1ccc(-n2nnc3cnc(N[C@H]4CC[C@H](O)CC4)nc32)cc1 [A6]
> 6.00

Using known records, supply pIC50 for OCCOc1ccc(-n2nnc3cnc(N[C@@H]4CC[C@@H](O)C4)nc32)cc1 [A203]
> 6.00

Using known records, supply pIC50 for Cc1nc2ccc(-n3nnc4cnc(N[C@@H]5CC[C@H](C(N)=O)C5)nc43)cc2o1 [A141]
> 6.00

Using known records, supply pIC50 for COc1ccc(-n2nnc3cnc(NC4CCOCC4)nc32)cc1 [A3]
5.30 to 6.00

Using known records, supply pIC50 for COc1ccc2cc(-n3nnc4cnc(N[C@@H]5CC[C@@H](C(N)=O)C5)nc43)ccc2n1 [A181]
> 6.00

Using known records, supply pIC50 for CCOc1ccc(-n2nnc3cnc(N[C@@H]4CC[C@@H](C(=O)NS(C)(=O)=O)C4)nc32)cc1 [A286]
> 6.00

Using known records, supply pIC50 for COc1ccc(-n2nnc3cnc(N[C@H]4CCOC4)nc32)cc1 [A28]
> 6.00

Using known records, supply pIC50 for COc1ccc(-n2nnc3cnc(N[C@@H]4CC[C@@H](N5CCCC5=O)C4)nc32)cc1 [A291]
> 6.00

Using known records, supply pIC50 for Cn1cc(-c2ccc(-n3nnc4cnc(N[C@@H]5CCNC5)nc43)cc2)cn1 [A116]
> 6.00

Using known records, supply pIC50 for O[C@@H]1CC[C@@H](Nc2ncc3nnn(-c4ccc(N5CCCC5)cc4)c3n2)C1 (relative stereo) [A198]
> 6.00

Using known records, supply pIC50 for CCOc1ccc(-n2nnc3cnc(N[C@@H]4CC[C@@H](C(N)=O)C4)nc32)nc1 [A178]
> 6.00

Using known records, supply pIC50 for COc1ccc(-n2nnc3cnc(N[C@H]4CC[C@@H](NC(=O)OCc5ccccc5)C4)nc32)cc1 [A89]
5.30 to 6.00
